B1: Flag-CNK^2–549 [Drosophila] / GST-HYP [Drosophila] (parent complex)
chain 1: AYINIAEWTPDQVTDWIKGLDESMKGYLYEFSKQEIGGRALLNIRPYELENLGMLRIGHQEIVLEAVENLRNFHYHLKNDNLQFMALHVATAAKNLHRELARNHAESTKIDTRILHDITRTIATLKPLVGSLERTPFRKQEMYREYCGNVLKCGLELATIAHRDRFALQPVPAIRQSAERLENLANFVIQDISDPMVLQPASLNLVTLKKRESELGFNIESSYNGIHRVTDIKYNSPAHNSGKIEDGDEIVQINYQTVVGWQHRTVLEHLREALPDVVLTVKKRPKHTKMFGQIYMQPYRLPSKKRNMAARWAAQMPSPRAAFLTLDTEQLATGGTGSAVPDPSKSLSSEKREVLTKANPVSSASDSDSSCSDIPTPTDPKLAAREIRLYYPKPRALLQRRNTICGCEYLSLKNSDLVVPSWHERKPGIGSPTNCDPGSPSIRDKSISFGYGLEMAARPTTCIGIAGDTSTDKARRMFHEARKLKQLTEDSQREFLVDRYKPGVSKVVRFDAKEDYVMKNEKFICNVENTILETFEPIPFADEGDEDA
chain 2: MGEETINSTQNKTRTKTTRPKAVYLWTVSDVLKWYRRHCGEYTQYEQLFAQHDITGRALLRITDSSLQRMGVTDNRDREAIWREIVKQRLKTDIMEIRDMERLNIY

variants of: B1; assay: GST pull-down, immunoblot quantification; S2 cells; Flag-CNK2–549, V5-KSR, Myc-MEK, GST-HYP co-expressed; anti-CNK blot; parent: 1
experimental readout: ratio to parent
Number only, no unit.

Query block: Query (variant): chain 1 N95E ; field requested: ratio to parent
Result block: 0.82

Query block: So what does the record say about ratio to parent for chain 1 R45F ?
Result block: 0.79

Query block: Any idea what its ratio to parent is? The variant is chain 1 N81E
Result block: 0.24

Query block: # query: ratio to parent of entry chain 1 N81W
Result block: 0.09

Query block: Look at this variant and give its reported ratio to parent. chain 1 R98E
Result block: 0.77

Query block: // returns reported ratio to parent for input chain 1 Y75R
Result block: 0.73

Query block: Need ratio to parent, item chain 1 Q83E
Result block: 0.4
